# Tested on: Mus musculus
# Test Details: In vivo percent increase in seizure threshold in mouse MEST model 4 hours following 10 mg/kg p.o.
# Applied Conditions: at 10 mg/kg
The threshold is 500%. Values of Increase beneath it are tagged class 1; values meeting or exceeding it are tagged class 0.

INSERT INTO assay_data (smiles_string, assayed_target, category_label) VALUES
  ('CC(=O)c1ccc2c(c1)[C@H](NC(=O)c1ccc(F)cc1Cl)[C@@H](O)C(C)(C)O2', 'Mus musculus', 'class 0');

Query block: Please check: Increase for "CC(=O)c1ccc2c(c1)[C@H](NC(=O)c1cccc(Cl)c1)[C@H](O)C(C)(C)O2" , strictly under 500% or not?
Result block: class 0

Query block: Bench note: check whether "CC(=O)c1ccc2c(c1)[C@H](NC(=O)c1cccc(Cl)c1)[C@@H](O)C(C)(C)O2" shows Increase below 500%
Result block: class 0

Query block: Hello, I'm reviewing records and need to know if Increase of "CC(=O)c1ccc2c(c1)[C@H](NC(=O)c1ccsc1Cl)[C@@H](O)C(C)(C)O2" is below 500%. Could you check?
Result block: class 0

Query block: is_below(Increase, 500%) for "CC(=O)c1ccc2c(c1)[C@H](NC(=O)c1ccc(F)cc1Cl)[C@H](O)C(C)(C)O2" ?
Result block: class 1

Query block: Regarding "CC(=O)c1ccc2c(c1)[C@H](NC(=O)c1ccsc1Cl)[C@H](O)C(C)(C)O2" , kindly confirm whether its Increase is beneath 500%.
Result block: class 1

###

# Tested on: Mus musculus
# Test Details: In vivo percent increase in seizure threshold in mouse MEST model 1 hour following 10 mg/kg p.o.
# Applied Conditions: at 10 mg/kg
Collected Increase values appear next to each entry.
# number only, unit % dropped from output

# annotated cases, reported Increase shown
INSERT INTO results (smiles_string, assayed_target, reported_result) VALUES
  ('CC(=O)c1ccc2c(c1)[C@H](NC(=O)c1ccc(F)cc1Cl)[C@@H](O)C(C)(C)O2', 'Mus musculus', 162),
  ('CC(=O)c1ccc2c(c1)[C@H](NC(=O)c1cc(Cl)cc(Cl)c1Cl)[C@@H](O)C(C)(C)O2', 'Mus musculus', 33),
  ('CC(=O)c1ccc2c(c1)[C@H](NC(=O)c1ccc(F)cc1Cl)[C@H](O)C(C)(C)O2', 'Mus musculus', 153);

Record summary for "CC(=O)c1ccc2c(c1)[C@H](NC(=O)c1ccsc1Cl)[C@H](O)C(C)(C)O2" : reported Increase = 47

###

# Organism: Rattus norvegicus
# Test Details: Ability to displace [3H]- SB-204269 in the rat forebrain
Measured Parameter: Log Ki
Provide a numeric answer; units are not to be included.

INSERT INTO measurements (molecule, measured_parameter, reported_result) VALUES
  ('CC(=O)c1ccc2c(c1)[C@H](NC(=O)c1ccc(F)cc1Cl)[C@H](O)C(C)(C)O2', 'Log Ki', -7.2),
  ('CC(=O)c1ccc2c(c1)[C@H](NC(=O)c1ccc(F)c(Cl)c1)[C@H](O)C(C)(C)O2 [TONABERSAT]', 'Log Ki', -7.9),
  ('CC(=O)c1ccc2c(c1)[C@H](NC(=O)c1ccsc1Cl)[C@H](O)C(C)(C)O2', 'Log Ki', -7.5);

Now look at this one.
Lab note: measured Log Ki of CC(=O)c1ccc2c(c1)[C@H](NC(=O)c1ccc(F)cc1)[C@@H](O)C(C)(C)O2 [CARABERSAT] was -7.3
